- Target Entity: CETP (Homo sapiens, UniProt P11597)
- Construct: CETP is obtained in partially purified form from human plasma; from tissue; host or cells: human plasma
- Measurement Notes: CETP fluorescence test
- Assay type: biochemical
- Assay Conditions: CETP from human plasma, 37° C., 4 hours; read-out: IC50 (nM) Fluor. test
Endpoint Name: IC50 (nM)

Examples from the recorded data:
> print(dat)
                                   compound  endpoint.name  scale.unit  observed.measurement
1  O[C@@H](c1ccc(C(F)(F)F)cc1)c1c(C2CCCC2)nc2c(c1-c1ccsc1)[C@@H](O)CC1(CCC1)C2 [Example 59]           IC50          nM                    60
2  CC(C)c1c([C@@H](O)c2ccc(C(F)(F)F)cc2)c(C2CCCC2)nc2c1[C@@H](O)CC1(CCC1)C2 [Example 75]           IC50          nM                    70

a = CC(C)c1nc2c(c(C3CCCCC3)c1[C@@H](O)c1ccc(C(F)(F)F)cc1)[C@@H](O)CC1(CCC1)C2 [Example 65]
b = O[C@@H](c1ccc(C(F)(F)F)cc1)c1c(C2CCCC2)nc2c(c1C1CCCC1)[C@@H](O)CC1(CCC1)C2 [Example 71]
Could you determine which record has the numerically smaller IC50? Candidates: a and b Write the label of whichever entry you select. b
(b: 40 nM, a: 80 nM)

----------
- Target Entity: CETP (Homo sapiens)
- Construct: CETP is obtained in partially purified form from human plasma; from tissue; host or cells: human plasma
- Sequence (P11597 18-493): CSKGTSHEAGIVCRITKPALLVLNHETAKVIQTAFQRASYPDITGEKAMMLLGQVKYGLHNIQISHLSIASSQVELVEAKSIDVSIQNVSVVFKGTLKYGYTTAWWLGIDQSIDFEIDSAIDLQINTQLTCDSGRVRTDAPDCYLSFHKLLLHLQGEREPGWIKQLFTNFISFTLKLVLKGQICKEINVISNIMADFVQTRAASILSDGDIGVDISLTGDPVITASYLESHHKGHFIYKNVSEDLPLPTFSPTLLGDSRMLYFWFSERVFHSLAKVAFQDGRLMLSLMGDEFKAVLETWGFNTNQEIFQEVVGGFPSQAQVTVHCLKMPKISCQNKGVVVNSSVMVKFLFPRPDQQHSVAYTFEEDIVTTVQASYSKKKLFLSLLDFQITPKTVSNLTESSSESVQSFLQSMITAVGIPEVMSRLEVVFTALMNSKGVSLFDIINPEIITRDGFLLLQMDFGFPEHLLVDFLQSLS
- Measurement Notes: CETP fluorescence test
- Format: biochemical
- Assay Conditions: CETP from human plasma, 37° C., 4 hours; read-out: IC50 (nM) Fluor. test
Endpoint Name: IC50 (nM)

Examples from the recorded data:
> print(dat)
                               input.smiles  observed.measurement
1  CC(C)c1nc2c(c(-c3ccccc3)c1[C@@H](O)c1ccc(C(F)(F)F)cc1)[C@@H](O)CC1(CCC1)C2                    30
2  O[C@@H](c1ccc(C(F)(F)F)cc1)c1c(C2CCCC2)nc2c(c1-c1cccs1)[C@@H](O)CC1(CCC1)C2                    70
3  O[C@@H](c1ccc(C(F)(F)F)cc1)c1c(C2CCCC2)nc2c(c1C1CCC1)[C@@H](O)CC1(CCC1)C2                   800

a = CC(C)c1nc2c(c(C3CCCC3)c1[C@@H](O)c1ccc(C(F)(F)F)cc1)[C@@H](O)CC1(CCC1)C2
b = CC(C)c1nc2c(c(-c3ccsc3)c1[C@@H](O)c1ccc(C(F)(F)F)cc1)[C@@H](O)CC1(CCC1)C2
Could you determine which record has the numerically smaller IC50? Candidates: a and b Write the label of whichever entry you select. b
(b: 45 nM, a: 70 nM)

1 = O[C@@H](c1ccc(C(F)(F)F)cc1)c1c(C2CCCC2)nc2c(c1C1CCCCC1)[C@@H](O)CC1(CCC1)C2
2 = O[C@@H](c1ccc(C(F)(F)F)cc1)c1c(C2CCCC2)nc2c(c1-c1ccc(F)cc1)[C@@H](O)CC1(CCC1)C2
Could you determine which record has the numerically smaller IC50? Candidates: 1 and 2 Write the label of whichever entry you select. 2

----------
- Target Entity: CETP activity in the serum (Homo sapiens, UniProt P11597)
- Construct: determination of its basal CETP activity in the serum; from tissue; host or cells: serum of transgenic hCETP mice
- Measurement Notes: Ex vivo activities on transgenic hCETP mice (serum CETP activity after oral administration)
- Assay Conditions: mouse, 3 h after administration, cholesteryl ester transport in serum, read-out: % inhibition at 30 mg/kg, 3 h
Endpoint Name: inhibition at 30 mg/kg (%)

> print(dat)
                               input.smiles           endpoint.name  observed.measurement
1  CC(C)c1nc2c(c(-c3cccs3)c1[C@@H](O)c1ccc(C(F)(F)F)cc1)[C@@H](O)CC1(CCC1)C2  inhibition at 30 mg/kg                    49
2  CC(C)c1nc2c(c(C3CCCCC3)c1[C@@H](O)c1ccc(C(F)(F)F)cc1)[C@@H](O)CC1(CCC1)C2  inhibition at 30 mg/kg                    46
3  CC(C)c1nc2c(c(-c3ccc(F)cc3)c1[C@@H](O)c1ccc(C(F)(F)F)cc1)[C@@H](O)CC1(CCC1)C2  inhibition at 30 mg/kg                    64
4  O[C@@H](c1ccc(C(F)(F)F)cc1)c1c(C2CCCC2)nc2c(c1-c1cccs1)[C@@H](O)CC1(CCC1)C2  inhibition at 30 mg/kg                    55
5  CC(C)c1nc2c(c(-c3ccccc3)c1[C@@H](O)c1ccc(C(F)(F)F)cc1)[C@@H](O)CC1(CCC1)C2  inhibition at 30 mg/kg                    51

----------
- Target Entity: CETP activity in the serum (Homo sapiens)
- Construct: determination of its basal CETP activity in the serum; from tissue; host or cells: serum of transgenic hCETP mice
- Measurement Notes: Ex vivo activities on transgenic hCETP mice (serum CETP activity after oral administration)
- Assay Conditions: mouse, 1 h after administration, cholesteryl ester transport in serum, read-out: % inhibition at 30 mg/kg, 1 h
Endpoint Name: inhibition at 30 mg/kg (%)

> print(dat)
                               input.smiles           endpoint.name  observed.measurement
1  O[C@@H](c1ccc(C(F)(F)F)cc1)c1c(C2CCCC2)nc2c(c1-c1cccs1)[C@@H](O)CC1(CCC1)C2  inhibition at 30 mg/kg                    74
2  CC(C)c1nc2c(c(-c3ccccc3)c1[C@@H](O)c1ccc(C(F)(F)F)cc1)[C@@H](O)CC1(CCC1)C2  inhibition at 30 mg/kg                    69
3  CC(C)c1nc2c(c(-c3ccc(F)cc3)c1[C@@H](O)c1ccc(C(F)(F)F)cc1)[C@@H](O)CC1(CCC1)C2  inhibition at 30 mg/kg                    72
4  CC(C)c1nc2c(c(C3CCCCC3)c1[C@@H](O)c1ccc(C(F)(F)F)cc1)[C@@H](O)CC1(CCC1)C2  inhibition at 30 mg/kg                    69
5  CC(C)c1nc2c(c(-c3cccs3)c1[C@@H](O)c1ccc(C(F)(F)F)cc1)[C@@H](O)CC1(CCC1)C2  inhibition at 30 mg/kg                    71

----------
- Target Entity: CETP (Homo sapiens)
- Construct: CETP is obtained in partially purified form from human plasma; from tissue; host or cells: human plasma
- Sequence (P11597 18-493): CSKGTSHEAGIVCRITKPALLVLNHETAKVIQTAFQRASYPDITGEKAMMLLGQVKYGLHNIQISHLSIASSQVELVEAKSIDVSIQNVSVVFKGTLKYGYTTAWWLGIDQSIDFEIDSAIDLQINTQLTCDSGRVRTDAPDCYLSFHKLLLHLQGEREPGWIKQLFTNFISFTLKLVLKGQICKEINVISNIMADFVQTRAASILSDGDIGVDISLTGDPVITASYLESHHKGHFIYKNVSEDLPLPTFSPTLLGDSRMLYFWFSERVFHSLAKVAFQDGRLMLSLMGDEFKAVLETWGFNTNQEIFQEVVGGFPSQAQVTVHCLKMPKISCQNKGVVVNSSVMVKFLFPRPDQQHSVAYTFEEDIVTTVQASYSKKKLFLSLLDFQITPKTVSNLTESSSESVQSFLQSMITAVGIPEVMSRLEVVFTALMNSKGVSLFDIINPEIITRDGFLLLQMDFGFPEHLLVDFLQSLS
- Measurement Notes: CETP fluorescence test
- Format: biochemical
- Assay Conditions: CETP from human plasma, 37° C., 4 hours; read-out: IC50 (nM) Fluor. test
Endpoint Name: IC50 (nM)

> print(dat)
                               input.smiles  scale.unit  observed.measurement
1  CC(C)c1nc2c(c(-c3cccs3)c1[C@@H](O)c1ccc(C(F)(F)F)cc1)[C@@H](O)CC1(CCC1)C2          nM                    30
2  O[C@@H](c1ccc(C(F)(F)F)cc1)c1c(C2CCCC2)nc2c(c1-c1ccccc1)[C@@H](O)CC1(CCC1)C2          nM                    65

I = CCCc1c([C@@H](O)c2ccc(C(F)(F)F)cc2)c(C2CCCC2)nc2c1[C@@H](O)CC1(CCC1)C2
II = CC(C)c1nc2c(c(-c3ccc(F)cc3)c1[C@@H](O)c1ccc(C(F)(F)F)cc1)[C@@H](O)CC1(CCC1)C2
Could you determine which record has the numerically smaller IC50? Candidates: I and II Write the label of whichever entry you select. II
